Assay: Ex vivo biodistribution in PC-3 tumor-bearing mice
Conditions: mouse, PC-3 tumor, 100 ug, Uptake in PC-3 tumor, 1 h blocked (co-injected with 100 µg [D-Phe6,Leu-NHEt13,des-Met14]Bombesin(6-14))
Numbered stars: 1 amine (or outer) side, 2 acyl side, 3 side chain; on linkers, the order of the positions; unused ones are H or OH. Square brackets hold non-standard residues; d marks the D form. Peptide text beside a SMILES is read from it. * marks the point of attachment. DOTA = O=C(O)CN1CCN(CC(=O)O)CCN(CC(=O)*)CCN(CC(=O)O)CC1; NMeH = CN[C@@H](Cc1c[nH]cn1)C(=O)O; X1 = O=C(CN1CCC(N[*:1])CC1)[*:2]; Tle = CC(C)(C)[C@H](N)C(=O)O; Thz = O=C(O)[C@@H]1CSCN1
endpoint.name: tissue uptake at 1 h (%ID/g)
Express it in %ID/g; write the number only.

>  <compound>
CC(C)C[C@H](NC(=O)[C@H](Cc1cnc[nH]1)N(C)C(=O)CNC(=O)[C@@H](NC(=O)[C@H](C)NC(=O)[C@H](Cc1c[nH]c2ccccc12)NC(=O)[C@H](CCC(N)=O)NC(=O)[C@@H](Cc1ccccc1)NC(=O)CN1CCC(NC(=O)CN2CCN(CC(=O)O)CCN(CC(=O)O)CCN(CC(=O)O)CC2)CC1)C(C)(C)C)C(=O)N1CSC[C@H]1C(N)=O [[^177Lu]Lu-LW01110, metal not drawn]

>  <measured.result>
2.99

$$$$
>  <compound>
CC(C)C[C@H](NC(=O)[C@H](Cc1cnc[nH]1)N(C)C(=O)CNC(=O)[C@@H](NC(=O)[C@H](C)NC(=O)[C@H](Cc1c[nH]c2ccccc12)NC(=O)[C@H](Cc1c[nH]cn1)NC(=O)[C@@H](Cc1ccccc1)NC(=O)CN1CCC(NC(=O)CN2CCN(CC(=O)O)CCN(CC(=O)O)CCN(CC(=O)O)CC2)CC1)C(C)(C)C)C(=O)N1CSC[C@H]1C(N)=O [[^177Lu]Lu-LW01142, metal not drawn] ({DOTA}-[X1][dF]HWA[Tle]G[NMeH]L[Thz]-NH2)

>  <measured.result>
5.03

$$$$

Note: attention shifts to another entry.
Query: Endpoint output: tissue uptake at 1 h of CC(C)C[C@@H](CN1CSC[C@H]1C(N)=O)NC(=O)[C@H](Cc1cnc[nH]1)NC(=O)CN(C)C(=O)[C@@H](NC(=O)[C@H](C)NC(=O)[C@H](Cc1c[nH]c2ccccc12)NC(=O)[C@H](CCC(N)=O)NC(=O)[C@@H](Cc1ccccc1)NC(=O)CN1CCC(NC(=O)CN2CCN(CC(=O)O)CCN(CC(=O)O)CCN(CC(=O)O)CC2)CC1)C(C)C [[^177Lu]Lu-TacsBOMB5, metal not drawn] . Value?
Response: 2.53
